assayNotes: activity coefficient (dimensionless); of the first substance listed, at infinite dilution; xn = mol fraction of the nth substance listed
protocolConditions: 322.55 K; Liquid; inverse gas chromatography; x1 = 0
reportedProperty: activity coefficient

c1ccccc1 [benzene] + CCCCn1cc[n+](C)c1.F[B-](F)(F)F	2.25
CCCC(C)=O [pentan-2-one] + CCCCn1cc[n+](C)c1.F[B-](F)(F)F	2.66
C=O [methanal] + CCCCn1cc[n+](C)c1.F[B-](F)(F)F	0.26
CC(C)CO [2-methyl-1-propanol] + CCCCn1cc[n+](C)c1.F[B-](F)(F)F	3.28

(A) C1COCCO1 [1,4-dioxane] + CCCCn1cc[n+](C)c1.F[B-](F)(F)F
(B) C1CCCCC1 [cyclohexane] + CCCCn1cc[n+](C)c1.F[B-](F)(F)F
## Input Sort A and B by activity coefficient descending and give the first. Mark your answer with the label of the selected entry.
## Output B
(B: 42.7, A: 1.28)

Measured values drawn from the NIST ThermoML archive (doi:10.1021/je800658v) for this set.
